Test system: HT-29
Assay Info: NCI tumour cell line growth inhibition, 48 h
Activity calls are given as the source filed them. No stated cut-off is given here; in the data, active = GI50 up to about 1.1 µM and inactive = higher.
Respond only with the outcome that fits, drawn from active, inactive

Problem: Please indicate how the test categorized N#C/C(=C\c1cccc(O)c1O)C(N)=O .
Solution: inactive

Problem: Please indicate how the test categorized Clc1ccc(OCc2nnc(CCCCCCCCc3nnc(COc4ccc(Cl)cc4Cl)n3Nc3ccccc3)n2Nc2ccccc2)c(Cl)c1 .
Solution: inactive

Problem: Please indicate how the test categorized O=C(c1cc(=O)c2ccc(O)cc2o1)c1ccc(Cl)cc1Cl .
Solution: inactive

Problem: Please indicate how the test categorized Nc1nc(NCC2(CO)CC2)cc(=O)[nH]1 .
Solution: inactive

Problem: Please indicate how the test categorized CC(=O)N1N=C(c2c(O)ccc3ccccc23)CC1C(=O)c1ccco1 (stereo not given) .
Solution: inactive

Problem: Please indicate how the test categorized Oc1ccc(NCc2cc(O)ccc2O)cc1 .
Solution: inactive

Problem: Please indicate how the test categorized Cc1nn2c(=O)n(-c3cccc(-n4nnc5c(-c6ccccc6)c(C)nn5c4=O)c3C)nnc2c1-c1ccccc1 .
Solution: inactive

Problem: Please indicate how the test categorized CC(C)(C)c1ccc2c(c1)C#Cc1cc3c(cc1OCCCO2)C#Cc1cc(C(C)(C)C)ccc1OCCCO3 .
Solution: inactive

Problem: Please indicate how the test categorized COc1cccc(/C=C2\CCCc3ccccc3C2=O)c1 .
Solution: inactive

Problem: Please indicate how the test categorized Cc1nnc(N)nc1/C=C/c1c(O)ccc2ccccc12 .
Solution: inactive

Problem: Please indicate how the test categorized N#Cc1cn(-c2c3ccccc3nc3ccccc23)c(=O)[nH]c1=O .
Solution: inactive

Problem: Please indicate how the test categorized c1ccc2c(c1)c1c(n2CCOCCN2CCCC2)CCCC1 .
Solution: inactive

Problem: Please indicate how the test categorized CCCCCC#CCOC(=O)C(=[N+]=[N-])P(=O)(c1ccccc1)c1ccccc1 .
Solution: inactive

Problem: Please indicate how the test categorized O=c1[nH]c(=O)n(COCc2ccccc2)c2ccc(Br)cc12 .
Solution: inactive

Problem: Please indicate how the test categorized O=NN(CCCl)C(=O)N[C@H]1CC[C@@H](C(=O)O)CC1 .
Solution: inactive

Problem: Please indicate how the test categorized CC(=O)[C@H]1[C@H](O)C[C@@]2(C)[C@@H]3CCc4cc(O)c(OC5OC(CO)C(O)C(O)C5O)cc4C3(C)C(=O)C[C@]12C (stereo not given in full) .
Solution: inactive

Problem: Please indicate how the test categorized CCCc1cn2c(/C=N/NC(=N)N)c(-c3cc([N+](=O)[O-])c(Cl)cc3Cl)nc2s1 .
Solution: inactive

Problem: Please indicate how the test categorized COc1cccc2c1C(=O)c1c(O)c3c(c(O)c1C2=O)C[C@@](O)(/C(C)=N/NC(=O)c1ccc(Cl)c(Cl)c1)C[C@@H]3OC1CC(N)C(O)C(C)O1 (stereo not given in full) .
Solution: active

Problem: Please indicate how the test categorized C=C(C)C1CCC2(C)CC1c1c(c(C)cc3c1[nH]c1ccccc13)O2 (stereo not given) .
Solution: inactive

Problem: Please indicate how the test categorized CCOC(=O)C1C(c2ccc(Cl)cc2Cl)NC(c2ccc(C)cc2)C(C(=O)OC)S1(=O)=O (stereo not given) .
Solution: inactive
